Test system: Curvularia
Experiment notes: Antifungal activity against Curvularia lunata at 200 ug/mL after 48 hrs by disc diffusion method
Format: functional
Particulars: read-out: DIZ
For each record, write down the corresponding zone of inhibition at 200 µg/mL.
Remember to follow the number with its unit.

Quick check: zone of inhibition at 200 µg/mL of COc1cc(C(=O)/C=C/c2ccc(Oc3nc(Oc4ccc(/C=C/C(=O)c5cc(OC)c(OC)c(OC)c5)cc4)nc(Oc4ccc(/C=C/C(=O)c5cc(OC)c(OC)c(OC)c5)cc4)n3)cc2)cc(OC)c1OC ?
14.1 mm

Quick check: zone of inhibition at 200 µg/mL of Cc1ccc(C(=O)/C=C/c2ccc(Oc3nc(Oc4ccc(/C=C/C(=O)c5ccc(C)cc5)cc4)nc(Oc4ccc(/C=C/C(=O)c5ccc(C)cc5)cc4)n3)cc2)cc1 ?
6.96 mm

Quick check: zone of inhibition at 200 µg/mL of COc1ccc(C(=O)/C=C/c2ccc(Oc3nc(Oc4ccc(/C=C/C(=O)c5ccc(OC)c(OC)c5)cc4)nc(Oc4ccc(/C=C/C(=O)c5ccc(OC)c(OC)c5)cc4)n3)cc2)cc1OC ?
12.1 mm

Quick check: zone of inhibition at 200 µg/mL of COc1ccc(C(=O)/C=C/c2ccc(Oc3nc(Oc4ccc(/C=C/C(=O)c5ccc(OC)cc5)cc4)nc(Oc4ccc(/C=C/C(=O)c5ccc(OC)cc5)cc4)n3)cc2)cc1 ?
13.2 mm

Quick check: zone of inhibition at 200 µg/mL of O=C(/C=C/c1ccc(Oc2nc(Oc3ccc(/C=C/C(=O)c4cccc([N+](=O)[O-])c4)cc3)nc(Oc3ccc(/C=C/C(=O)c4cccc([N+](=O)[O-])c4)cc3)n2)cc1)c1cccc([N+](=O)[O-])c1 ?
6.96 mm

Quick check: zone of inhibition at 200 µg/mL of O=C(/C=C/c1ccc(Oc2nc(Oc3ccc(/C=C/C(=O)c4ccc([N+](=O)[O-])cc4)cc3)nc(Oc3ccc(/C=C/C(=O)c4ccc([N+](=O)[O-])cc4)cc3)n2)cc1)c1ccc([N+](=O)[O-])cc1 ?
8.2 mm

Quick check: zone of inhibition at 200 µg/mL of O=C(/C=C/c1ccc(Oc2nc(Oc3ccc(/C=C/C(=O)c4ccc(Br)cc4)cc3)nc(Oc3ccc(/C=C/C(=O)c4ccc(Br)cc4)cc3)n2)cc1)c1ccc(Br)cc1 ?
10.1 mm

Quick check: zone of inhibition at 200 µg/mL of O=C(/C=C/c1ccc(Oc2nc(Oc3ccc(/C=C/C(=O)c4ccccc4)cc3)nc(Oc3ccc(/C=C/C(=O)c4ccccc4)cc3)n2)cc1)c1ccccc1 ?
6.16 mm

Quick check: zone of inhibition at 200 µg/mL of O=C(/C=C/c1ccc(Oc2nc(Oc3ccc(/C=C/C(=O)c4ccc(Cl)cc4)cc3)nc(Oc3ccc(/C=C/C(=O)c4ccc(Cl)cc4)cc3)n2)cc1)c1ccc(Cl)cc1 ?
7.2 mm

Quick check: zone of inhibition at 200 µg/mL of COc1ccc(OC)c(C(=O)/C=C/c2ccc(Oc3nc(Oc4ccc(/C=C/C(=O)c5cc(OC)ccc5OC)cc4)nc(Oc4ccc(/C=C/C(=O)c5cc(OC)ccc5OC)cc4)n3)cc2)c1 ?
12.2 mm

----------
Test system: Alternaria
Experiment notes: Antifungal activity against Alternaria at 200 ug/mL after 48 hrs by disc diffusion method
Assay type: functional
Particulars: read-out: DIZ
Label rule, in plain words: zone of inhibition at 200 µg/mL of 10 mm and up is Fulfilled, under 10 mm is Not fulfilled.

Confirm if zone of inhibition at 200 µg/mL reported for the compound COc1cc(C(=O)/C=C/c2ccc(Oc3nc(Oc4ccc(/C=C/C(=O)c5cc(OC)c(OC)c(OC)c5)cc4)nc(Oc4ccc(/C=C/C(=O)c5cc(OC)c(OC)c(OC)c5)cc4)n3)cc2)cc(OC)c1OC is 10 mm or above.
Fulfilled

Confirm if zone of inhibition at 200 µg/mL reported for the compound COc1ccc(C(=O)/C=C/c2ccc(Oc3nc(Oc4ccc(/C=C/C(=O)c5ccc(OC)c(OC)c5)cc4)nc(Oc4ccc(/C=C/C(=O)c5ccc(OC)c(OC)c5)cc4)n3)cc2)cc1OC is 10 mm or above.
Fulfilled

Confirm if zone of inhibition at 200 µg/mL reported for the compound O=C(/C=C/c1ccc(Oc2nc(Oc3ccc(/C=C/C(=O)c4ccc(Cl)cc4)cc3)nc(Oc3ccc(/C=C/C(=O)c4ccc(Cl)cc4)cc3)n2)cc1)c1ccc(Cl)cc1 is 10 mm or above.
Not fulfilled

Confirm if zone of inhibition at 200 µg/mL reported for the compound O=C(/C=C/c1ccc(Oc2nc(Oc3ccc(/C=C/C(=O)c4ccc([N+](=O)[O-])cc4)cc3)nc(Oc3ccc(/C=C/C(=O)c4ccc([N+](=O)[O-])cc4)cc3)n2)cc1)c1ccc([N+](=O)[O-])cc1 is 10 mm or above.
Not fulfilled

Confirm if zone of inhibition at 200 µg/mL reported for the compound COc1ccc(OC)c(C(=O)/C=C/c2ccc(Oc3nc(Oc4ccc(/C=C/C(=O)c5cc(OC)ccc5OC)cc4)nc(Oc4ccc(/C=C/C(=O)c5cc(OC)ccc5OC)cc4)n3)cc2)c1 is 10 mm or above.
Fulfilled

Confirm if zone of inhibition at 200 µg/mL reported for the compound O=C(/C=C/c1ccc(Oc2nc(Oc3ccc(/C=C/C(=O)c4ccccc4)cc3)nc(Oc3ccc(/C=C/C(=O)c4ccccc4)cc3)n2)cc1)c1ccccc1 is 10 mm or above.
Not fulfilled

Confirm if zone of inhibition at 200 µg/mL reported for the compound O=C(/C=C/c1ccc(Oc2nc(Oc3ccc(/C=C/C(=O)c4ccc(Br)cc4)cc3)nc(Oc3ccc(/C=C/C(=O)c4ccc(Br)cc4)cc3)n2)cc1)c1ccc(Br)cc1 is 10 mm or above.
Not fulfilled

Confirm if zone of inhibition at 200 µg/mL reported for the compound O=C(/C=C/c1ccc(Oc2nc(Oc3ccc(/C=C/C(=O)c4cccc([N+](=O)[O-])c4)cc3)nc(Oc3ccc(/C=C/C(=O)c4cccc([N+](=O)[O-])c4)cc3)n2)cc1)c1cccc([N+](=O)[O-])c1 is 10 mm or above.
Not fulfilled

Confirm if zone of inhibition at 200 µg/mL reported for the compound Cc1ccc(C(=O)/C=C/c2ccc(Oc3nc(Oc4ccc(/C=C/C(=O)c5ccc(C)cc5)cc4)nc(Oc4ccc(/C=C/C(=O)c5ccc(C)cc5)cc4)n3)cc2)cc1 is 10 mm or above.
Not fulfilled
